Biological target: UniProt P21462
Sequence (P21462 whole entry): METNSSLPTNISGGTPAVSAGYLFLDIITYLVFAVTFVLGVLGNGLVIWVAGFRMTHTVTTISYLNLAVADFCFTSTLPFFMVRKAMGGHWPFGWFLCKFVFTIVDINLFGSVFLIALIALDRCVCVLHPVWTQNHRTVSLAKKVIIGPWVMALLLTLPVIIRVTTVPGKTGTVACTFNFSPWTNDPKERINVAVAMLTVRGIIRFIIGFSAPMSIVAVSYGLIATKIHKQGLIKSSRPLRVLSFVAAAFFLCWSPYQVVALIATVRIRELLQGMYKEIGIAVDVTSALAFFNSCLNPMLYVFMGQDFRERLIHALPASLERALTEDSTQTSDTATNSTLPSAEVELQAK
Test: Cyclic adenosine monophosphate (cAMP) assay, CHO-K1 cells stably overexpressing hFPR1
Assay type: cell-based
Details: 2.5 μM Forskolin and 0.25 nM WKYMVm (FPR1 agonist)
pIC50: −log10 of the molar value.
Recorded pIC50 for the following molecules

{"molecule": "CC[C@H](C)NC(=O)c1c(NS(=O)(=O)c2ccccc2)c(-c2ccc(F)cc2)nn1C [Compound 3]", "recorded result": "< 4.60"}
{"molecule": "Cc1ccc(S(=O)(=O)Nc2c(C3=CCC(F)(F)CC3)nn(C)c2C(=O)N[C@@H](C)C(C)(C)C)cc1 [Compound 29]", "recorded result": "< 4.60"}
{"molecule": "C[C@H](NC(=O)c1c(NS(=O)(=O)c2ccc(Cl)cc2)c(C2=CCC(F)(F)CC2)nn1C)C(C)(C)C [Compound 36]", "recorded result": "< 4.60"}

Now turn to the next molecule.
Query Cc1ccc(S(=O)(=O)Nc2c(C3(O)CCOCC3)nn(C)c2C(=O)N[C@@H](C)C(C)(C)C)cc1 [Compound 31] yields pIC50 of < 4.60
